Data provenance is the NTF2 design screens of Basanta et al. (2020).

# protocol.notes: protease stability score; higher = more stable; yeast display proteolysis, trypsin and chymotrypsin;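 also: relative to predicted unfolded state with 0 unfolded-like and 1 meaning tenfold more protease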
quantity.name: protease stability score
Give bare numbers.

Study these solved cases before continuing.
| sequence.chain | protease stability score |
| --- | --- |
| SEDHERMKEMIELTLHAIFTGDEDLLKRLLDPHTRIVVNGQDRHGRHALEWFLSVLGIKHIHYEIVRTHLVNGVLHNHIHGHLNVNGKTYELEVEITIRKINGRWLMHVVQWDII | 1.99 |
| SEDDEEKEEYLRKELEAHRTGDWRLFRELIDPHTKIHINGVLFVGWKDATRFFKEIRVKDHKVHRVRNIDGRIEMDGELNIDIDGREDIMIVHIRAKKVNGRWIVDSVEFR | 1.19 |
| SEEEQHAKHMSHLISHVLKTGDEERWKELMDPHTRLIVGDKEFHGREALHELKRRVDHMKDVLIHSVEVQGNKADFDVEVHVKVDGRHERLKMRWIVDKVNGRWVQSEIIIH | 1.65 |

Parameters: items (list). Returns: protease stability score for each item.
1. SEDRENFHRFWKELLRYYLTGDEDALTRMFDPNAQMIYGDKHYHGREVLEFIHHQVDVFRSVEIESSRSINGVVIIHVRLNGEYNGQQENTEFTLVFEKINGRWRIKQVRSE
2. TEEETRLREFMDRLLKIITTGDEKRFKDLADPHVRLFIDGVTIHGRDEAHEMWEIFGMKVKSTHVHEIHIQGDKVNIDTRLSGHFNGRDHIWEAHIYVVKIDGRWILEYIEIR
3. DKEEKEAREWSKRFLHLFLTGNEEEFKRLMDPHTQSMLLIDGKRDTHHGRDEATKLLSDWLNHMRLRELRVHDIKVQGDKATLDIRLNVEFNGVELERTSEIIIVVFDGRIKSVIFRIE

[1.11, 1.94, 1.55]

----------
Consider the following sequences; for each one, report its protease stability score.
# protocol.notes: protease stability score; higher = more stable; yeast display proteolysis, trypsin and chymotrypsin;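 also: relative to predicted unfolded state with 0 unfolded-like and 1 meaning tenfold more protease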
Give bare numbers.

For orientation, consider the following solved cases.
| sequence.chain | reported |
| --- | --- |
| SKEEHETHRMIEHILKIVKTGDEENIHKNLDPHVRVNVNGRNLHGREEFVRVMYQWWHEAGVDHVHLTDFEIQGDKAHIHIDEHFNGKRHHIEIIAQKVNGKWLMREVIID | 1.39 |
| SEEEKDARDFIDYLVHHLETGDEEEFEKLIDPHTRLQVDGRHFHGREAYEWMLYQFKNVKIKHLTIRHIEIQGDKVHITSTWNLIVDGQEKELRTHIILDKVNGRWMIRKMRIQ | 1.8 |
| KEEEWLAREWLRLWFEAVMTGDEHRLNHMLDPHVRTIVGDYEDVGRERSSELFLEIRLDHMELTSLDVQGDYAHLEIRVDGTIDGKRIETEMRVTLNIVDGRFRTVEHRIS | 0.755 |

Look up protease stability score for the entries below, preserving their order.
1. DELHERLEEVLEVRIEAILTGDWHWLSRMLDPDTRLEVGDKTYHGMEKIYEKLHTETRRMGWRMEVEIKDYRFQGDYLNVDGTIHIKIGDKEIQKRSELKIVVVDGRITEFKIEYR
2. SEVHRDLRKAVDYFEEVFRTGDEDKMNNLLDPNVRWIVNGKDLVGREKAIRRYHEHRKTLGVNHFETRIDDQEVYGNKATLHGELTIHVNGRDIHHETRLNVSKINGVWYIESFIID
3. DENDTARKIIKTLLDIMREGDEDKLRDQMDPNVRADVGDKTVHGREHAAKFLAHIVKRADHISITLKSLHNHNGRLRMQAEVRIVHNGRTERVTLEMVFRDHNGKLLIERMKYG

1: 1.18; 2: 0.949; 3: 2.36
